# Read-out: matrix metalloproteinase-3 (MMP3), MMP3 (gene 4314)
# Test details: LTEA_HepaRG_MMP3: Life Technologies and Expression Analysis (LTEA) Assay for matrix metalloproteinase-3 (MMP3) using HepaRG (AID 2283519)
# Experimental context: mRNA level, 48 h; actives raise or lower the signal
# Protocol: LTEA_HepaRG is a cell based, multiplexed-readout assay that uses HepaRG, a human liver cell line, with measurements taken at 48 hours after chemical dosing on a 96-well plate.LTEA_HepaRG_MMP3 is one of 102 assay component(s) measured in the LTEA HepaRG cell culture assay. It is a marker of Fibrosis.Data from the assay component LTEA_HepaRG_MMP3 was analyzed into 1 endpoint. […]
The source made the active and inactive calls. The calls were made as follows: active = hit-call score of the fitted dose curve at least 0.9, where 1 is the maximum; inactive = score below 0.9.
Property name: outcome

> print(dat)
          smiles.repr  property.name  readout.value
1  C/C=C/c1ccc(OC)cc1        outcome       inactive
2           CCCC(=O)O        outcome       inactive
3          Oc1ccccc1O        outcome       inactive

====

# Study target: Glucocorticoid receptor (Homo sapiens) (UniProt P04150)
# Sequence (P04150 whole entry, looked up): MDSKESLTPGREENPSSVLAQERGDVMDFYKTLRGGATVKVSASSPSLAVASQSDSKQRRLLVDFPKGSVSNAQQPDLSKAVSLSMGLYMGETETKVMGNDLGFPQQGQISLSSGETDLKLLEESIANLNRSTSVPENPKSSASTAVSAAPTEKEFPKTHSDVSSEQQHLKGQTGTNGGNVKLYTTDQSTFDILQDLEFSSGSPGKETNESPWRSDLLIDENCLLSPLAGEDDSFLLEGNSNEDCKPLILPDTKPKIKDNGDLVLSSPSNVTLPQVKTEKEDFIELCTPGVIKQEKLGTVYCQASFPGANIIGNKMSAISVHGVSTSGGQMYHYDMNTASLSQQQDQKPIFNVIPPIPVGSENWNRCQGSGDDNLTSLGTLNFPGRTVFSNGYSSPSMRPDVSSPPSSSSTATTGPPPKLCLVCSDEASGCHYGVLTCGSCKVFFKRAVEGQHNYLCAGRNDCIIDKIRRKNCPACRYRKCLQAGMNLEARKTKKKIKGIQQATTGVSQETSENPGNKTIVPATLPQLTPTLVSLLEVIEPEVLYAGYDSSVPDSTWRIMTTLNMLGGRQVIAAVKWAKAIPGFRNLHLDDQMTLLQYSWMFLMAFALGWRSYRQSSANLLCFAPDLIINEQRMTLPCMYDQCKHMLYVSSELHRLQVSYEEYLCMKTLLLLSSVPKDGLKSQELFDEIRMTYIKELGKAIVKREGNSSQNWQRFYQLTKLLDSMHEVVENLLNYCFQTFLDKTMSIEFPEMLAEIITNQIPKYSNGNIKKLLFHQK
# Test details: ATG_GR_TRANS: Attagene TRANS-FACTORIAL HepG2 Assay for human Glucocorticoid Receptor (GR) (AID 2282978);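 also: activators score as hits since higher reporter transcript over DMSO is fitted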
# Experimental context: HepG2 Attagene TRANS GR reporter, mRNA transcription
Results filed as inconclusive are left out. Activity calls are given as the source filed them. The calls were made as follows: active = hit-call score of the fitted dose curve at least 0.9, where 1 is the maximum; inconclusive = response in the unintended direction; inactive = score below 0.9.
Outcome codes: active, inactive

> print(dat)
                                    compound     class
 1            O=C1O[C@H]([C@H](O)CO)C(O)=C1O  inactive
 2                  CCCCCCCCCC[N+](C)(C)[O-]  inactive
 3              O=C1c2c(O)cccc2Cc2cccc(O)c21  inactive
 4       C#CC(O)C(CC)CCCC (stereo not drawn)  inactive
 5                 CCCCCCCCCCCCCCOS(=O)(=O)O  inactive
 6  CC(C)(O)c1ccc(CNC(=O)c2cccnc2Oc2ccc(F)cc2)cc1  inactive
 7             CCc1nc(N)nc(N)c1-c1ccc(Cl)cc1  inactive
 8  CCCCC(CC)COP(=O)(OCC(CC)CCCC)OCC(CC)CCCC (stereo not drawn)  inactive
 9         O=C1NC(=O)C(c2ccccc2)(c2ccccc2)N1  inactive
10  COC(=O)[C@H]1[C@H]2C[C@@H]3c4[nH]c5cc(OC)ccc5c4CCN3C[C@H]2C[C@@H](OC(=O)c2cc(OC)c(OC)c(OC)c2)[C@@H]1OC  inactive
11                  CCCCOC(=O)CCCCC(=O)OCCCC    active
12                      C=CCc1ccc(OC)c(OC)c1  inactive
13  OCC(CO)n1cnc(-c2ccc(F)cc2)c1-c1ccnc(Oc2ccccc2)n1  inactive
14    O=C(Oc1ccccc1)c1cccc(C(=O)Oc2ccccc2)c1  inactive
15                                Oc1ccccc1O  inactive
16  CCCCc1nc2cccnc2n1Cc1ccc(-c2ccccc2-c2nnn[nH]2)cc1  inactive
17                     CC1(C)C(=O)NC(=O)N1CO  inactive
18               Cc1cc(Cc2ccc(N)c(C)c2)ccc1N  inactive
